- assayed_target: binding between IKKβ and full-length Regnase-1 (FL_Reg1) (Homo sapiens)
- Construct: made in house; host or cells: Expi293 cells
- Sequence (Q5D1E8 whole entry): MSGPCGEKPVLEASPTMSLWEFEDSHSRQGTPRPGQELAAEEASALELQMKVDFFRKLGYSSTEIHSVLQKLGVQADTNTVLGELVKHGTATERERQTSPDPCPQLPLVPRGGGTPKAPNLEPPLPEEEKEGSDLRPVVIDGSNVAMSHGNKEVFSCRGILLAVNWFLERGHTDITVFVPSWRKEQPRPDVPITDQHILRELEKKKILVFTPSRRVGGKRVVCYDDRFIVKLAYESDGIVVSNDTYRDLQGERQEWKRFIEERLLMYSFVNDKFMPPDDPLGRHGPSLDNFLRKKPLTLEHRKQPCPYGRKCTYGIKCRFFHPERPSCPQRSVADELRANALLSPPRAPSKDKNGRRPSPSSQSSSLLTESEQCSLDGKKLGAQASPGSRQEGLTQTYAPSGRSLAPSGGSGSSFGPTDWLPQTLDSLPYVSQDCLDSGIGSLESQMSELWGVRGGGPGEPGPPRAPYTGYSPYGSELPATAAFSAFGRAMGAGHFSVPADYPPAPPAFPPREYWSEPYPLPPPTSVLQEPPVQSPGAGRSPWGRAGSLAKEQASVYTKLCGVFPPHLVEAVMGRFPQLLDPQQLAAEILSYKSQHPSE
- protocol: Inhibition of kinase-Regnase-1 binding by the compounds (AlphaScreen), IKKβ
- setup_conditions: Table 12; 2.5 nM Regnase-1, 2.5 nM IKKβ; AlphaScreen; read-out: 50% inhibition concentration, binding between Regnase-1 and IKKβ, FL_Reg1
Residues, ends and D or L forms follow the SMILES beside them.
recorded_endpoint: IC50 (µM)

1. CC[C@H](C)[C@@H]1NC(=O)[C@H](CCCCN)NC(=O)[C@H](Cc2ccccc2)NC(=O)[C@H](Cc2c[nH]c3ccccc23)NC(=O)[C@H](CO)NC(=O)[C@H](CO)NC(=O)[C@H](CC(N)=O)NC(=O)[C@@H]2CCCN2C(=O)[C@@H](C)N(C)C(=O)C[C@@H](C(=O)N2CCCC2)NC(=O)[C@H](Cc2c[nH]c3ccccc23)NC1=O [PP6] (HELM PEPTIDE1{[C[C@H](C(=O)[*:2])N(C)[*:1]].P.N.S.S.W.F.K.I.W.D.[C1CCN([*:1])C1]}$PEPTIDE1,PEPTIDE1,1:R1-11:R3$$$V2.0); 42.1
